- TGT: BRAF (Homo sapiens)
- Construct: purchased Eurofins Genomics KK; (BRAF); Thermo Fisher Scientific Inc. (MEK1)
- Sequence (P15056 417-766 limits assumed): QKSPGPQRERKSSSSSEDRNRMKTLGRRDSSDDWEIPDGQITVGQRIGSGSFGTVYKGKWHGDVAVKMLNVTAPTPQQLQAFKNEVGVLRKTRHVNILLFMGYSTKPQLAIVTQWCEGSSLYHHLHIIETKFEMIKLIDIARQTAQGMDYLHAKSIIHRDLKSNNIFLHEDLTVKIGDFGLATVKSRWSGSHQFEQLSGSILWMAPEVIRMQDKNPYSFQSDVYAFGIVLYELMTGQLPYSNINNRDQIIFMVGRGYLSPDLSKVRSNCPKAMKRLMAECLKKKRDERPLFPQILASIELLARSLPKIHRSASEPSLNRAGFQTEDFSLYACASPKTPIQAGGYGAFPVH
- MEASUREMENT_PROTOCOL: BRAF-inhibiting activity, time-resolved fluorescence-fluorescence resonance energy transfer assay
- Assay type: biochemical
- MEASUREMENT_CONTEXT: read-out: BRAF IC50; Table 3
pIC50: −log10 of the molar value.

{"SMILES_REPRESENTATION": "CNS(=O)(=O)Nc1cccc(Cc2cc(C(=O)NC3CC3)c(Nc3ccc(I)cc3F)c(F)c2F)c1F", "pIC50": 8.10}
{"SMILES_REPRESENTATION": "CC1(S(=O)(=O)Nc2cccc(Cc3cc(C(N)=O)c(Nc4ccc(I)cc4F)c(F)c3F)c2F)CC1", "pIC50": 7.92}
{"SMILES_REPRESENTATION": "Cn1c(Nc2ccc(I)cc2F)c(C(N)=O)cc(Cc2cccc(NS(=O)(=O)NC3CC3)c2F)c1=O", "pIC50": 8.30}
{"SMILES_REPRESENTATION": "CCNS(=O)(=O)Nc1nccc(Cc2cc(C(N)=O)c(Nc3ccc(I)cc3F)cc2F)c1F", "pIC50": 8.52}
{"SMILES_REPRESENTATION": "CC(C)CNS(=O)(=O)Nc1nccc(Cc2cc(C(N)=O)c(Nc3ccc(I)cc3F)c(F)c2F)c1F", "pIC50": 8.52}
{"SMILES_REPRESENTATION": "COCCNS(=O)(=O)Nc1nccc(Cc2cc(C(N)=O)c(Nc3ccc(I)cc3F)c(F)c2F)c1F", "pIC50": 8.70}
{"SMILES_REPRESENTATION": "CCNS(=O)(=O)Nc1nccc(Cc2cc(C(N)=O)c(Nc3ccc(I)cc3F)n(C)c2=O)c1F", "pIC50": 8.52}
